# reported MIC; entries follow
# Tested on: Vibrio anguillarum
# test-summary: In vitro antibacterial activity on pathogenic bacteria for fish (agar MIC, Test Example 1)
# Type: cell-based
# experimental-conditions: Vibrio anguillarum, 20 h, Vibrio anguillarum strain NH8410, Mueller-Hinton agar, 25-30 °C, read-out: MIC (minimum growth-inhibition concentration)
// return numeric value only (unit: µg/mL, not printed)

INSERT INTO assay_data (cpd_smiles, result) VALUES
  ('CCN1CCN(c2cc3c(cc2F)c(=O)c(C(=O)O)cn3C2CC2)CC1', 0.025),
  ('O=C(O)c1cn(C2CC2)c2cc(N3CCN(CCO)CC3)c(F)cc2c1=O', 0.1);

Could you now consider this next compound?
Enquiry: Which measured MIC value corresponds to `CCOC(=O)c1cn(C2CC2)c2cc(N3CCN(CC)CC3)c(F)cc2c1=O` ?
Return: 12.5

* * *

# Tested on: Pasteurella piscicida
# test-summary: In vitro antibacterial activity on pathogenic bacteria for fish (agar MIC, Test Example 1)
# Assay type: cell-based
# experimental-conditions: Pasteurella piscicida strain EH8309; Mueller-Hinton agar, 20 h, 25-30 °C
# reported MIC (minimum growth-inhibition concentration); entries follow
// return numeric value only (unit: µg/mL, not printed)

Worked examples follow.
INSERT INTO measurements (compound, result) VALUES
  ('CCN1CCN(c2cc3c(cc2F)c(=O)c(C(=O)O)cn3C2CC2)CC1 [Compound G]', 0.1),
  ('CCN1CCN(c2cc3c(cc2F)c(=O)c(C(=O)O)cn3C2CC2)CC1 [Compound D]', 0.025);

Could you now consider this next compound?
Enquiry: Which measured MIC (minimum growth-inhibition concentration) value corresponds to CCN1CCN(c2cc3c(cc2F)c(=O)c(C(=O)O)cn3C2CC2)CC1 [Compound E] ?
Return: 0.05
